Collected IC50 values appear next to each entry.
Target: Recombinant NAMPT protein (Homo sapiens, UniProt P43490)
Sequence (P43490 whole entry): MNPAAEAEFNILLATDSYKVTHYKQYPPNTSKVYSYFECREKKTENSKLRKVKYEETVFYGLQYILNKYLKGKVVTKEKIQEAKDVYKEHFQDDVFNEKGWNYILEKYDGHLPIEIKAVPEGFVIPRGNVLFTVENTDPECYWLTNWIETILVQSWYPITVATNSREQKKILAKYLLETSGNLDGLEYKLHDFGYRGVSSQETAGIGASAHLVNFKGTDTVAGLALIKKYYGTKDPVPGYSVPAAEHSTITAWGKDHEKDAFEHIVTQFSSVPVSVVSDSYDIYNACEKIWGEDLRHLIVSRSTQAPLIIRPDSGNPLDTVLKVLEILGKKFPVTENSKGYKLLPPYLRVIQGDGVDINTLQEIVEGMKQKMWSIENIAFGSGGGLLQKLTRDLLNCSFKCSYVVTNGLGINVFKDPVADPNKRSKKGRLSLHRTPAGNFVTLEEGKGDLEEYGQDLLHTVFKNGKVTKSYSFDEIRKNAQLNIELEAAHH
Assay: NAMPT enzyme inhibition assay (BPS bioscience NAMPT Inhibitor Screening Assay Kit, fluorescence)
Settings: 30 min pre-incubation, 2 h at 30°C, compound 1000 nM to 3 nM, n=2
MEASURED PARAMETER: IC50

TEST SMILES: Cn1ccc(CS(=O)(=O)c2ccc(C(=O)NCCc3c[nH]c4ccncc34)cc2C#Cc2ccc(F)cc2)n1
TARGET: Recombinant NAMPT protein (Homo sapiens, UniProt P43490)
DATA VALUE: < 500 nM

TEST SMILES: Cn1ccc(CS(=O)(=O)c2ccc(C(=O)NCc3ccn4ccnc4c3)cc2C#Cc2cccc(N)c2)n1
TARGET: Recombinant NAMPT protein (Homo sapiens, UniProt P43490)
DATA VALUE: < 500 nM

TEST SMILES: CNS(=O)(=O)c1ccc(C(=O)NCCCc2cn[nH]c2)cc1C#Cc1ccc(F)cc1
TARGET: Recombinant NAMPT protein (Homo sapiens, UniProt P43490)
DATA VALUE: ≥ 1000 nM

TEST SMILES: Cn1ccc(CS(=O)(=O)c2ccc(C(=O)NCc3ccn4ccnc4c3)cc2C#Cc2cccc(C(=O)N3CCNCC3)c2)n1
TARGET: Recombinant NAMPT protein (Homo sapiens, UniProt P43490)
DATA VALUE: < 500 nM

###

Tested on: HCT-116 cell lines
Test: Cellular NAD measurement assay (NAD/NADH-Glo Assay)
Format: cell-based
Details: Homo sapiens; intracellular NAD+/NADH levels, HCT-116 cells, 24 hours treatment, 0.1 nM to 100 nM
Procedure: With regard to HCT-116 cell lines, the decrease in intracellular NAD+ and NADH levels due to the inhibition of NAMPT enzyme activity by compounds was evaluated using the product of NAD/NADH-Glo™ Assay (Promega, G9072) from Promega. The cells were incubated using DMEM (Gibco, 11995-065) medium containing 10% FBS. […] After incubating for two minutes at 400 rpm in a plate shaker for cell lysis, the cells were incubated for 30 minutes at room temperature, and luminescence was measured. […]
Collected IC50 values appear next to each entry.
MEASURED PARAMETER: IC50

TEST SMILES: O=C(NCCCc1cn[nH]c1)c1ccc(S(=O)(=O)Cc2ccn(-c3ccncc3)n2)c(C#Cc2ccc(F)cc2)c1
DATA VALUE: ≤ 10 nM

TEST SMILES: Cn1ccc(CS(=O)(=O)c2ccc(C(=O)NCc3ccn4ccnc4c3)cc2C#Cc2ccc(N)cc2)n1
DATA VALUE: ≤ 10 nM

TEST SMILES: Cn1ccc(CS(=O)(=O)c2ccc(C(=O)NCc3ccn4ccnc4c3)cc2C#Cc2ccc(F)cc2)n1
DATA VALUE: ≤ 10 nM

TEST SMILES: Cn1ccc(CS(=O)(=O)c2ccc(C(=O)NCc3ccn4ccnc4c3)cc2C#Cc2cccc(C(=O)N3CCNCC3)c2)n1
DATA VALUE: 10 to 1000 nM

TEST SMILES: Cn1ccc(CS(=O)(=O)c2ccc(C(=O)NCc3ccn4ccnc4c3)cc2C#Cc2cccc(N)c2)n1
DATA VALUE: ≤ 10 nM

TEST SMILES: Cn1ccc(CS(=O)(=O)c2ccc(C(=O)NCCCc3cn[nH]c3)cc2C#Cc2ccc(F)cc2)n1
DATA VALUE: ≤ 10 nM
